// data source = patent US20090214600A1

Experiment: Rabbit plasma Ceftriaxone concentration after IV administration (control)
Assay type: in vivo
Conditions: animal 006, 2.0 Hours, read-out: Plasma Concentration of Ceftriaxone Over Time After IV Administration

{"columns": ["molecule", "concentration at 2 h"],
 "data": [
  ["CO/N=C(\\C(=O)N[C@@H]1C(=O)N2C(C(=O)O)=C(CSc3nc(=O)c(=O)[nH]n3C)CS[C@H]12)c1csc(N)n1 [Ceftriaxone, Ceftriaxone sodium]", "90.8 µg/mL"]
]}

---

Experiment: Rabbit plasma Ceftriaxone concentration after IV administration (control)
Format: in vivo
Conditions: animal 006, 4.0 Hours, read-out: Plasma Concentration of Ceftriaxone Over Time After IV Administration

{"columns": ["molecule", "concentration at 4 h"],
 "data": [
  ["CO/N=C(\\C(=O)N[C@@H]1C(=O)N2C(C(=O)O)=C(CSc3nc(=O)c(=O)[nH]n3C)CS[C@H]12)c1csc(N)n1 [Ceftriaxone, Ceftriaxone sodium]", "36400 ng/mL"]
]}
